system: HIV‐2 [ROD]; experiment: Anti-HIV activity, HIV-2 in wild-type CEM/0 cells; type: cell-based; conditions: Human immunodeficiency virus 2, CCRF-CEM; wild-type CEM/0 cells, mean ±SD n = 2–3; read-out: Antiviral activity CEM/0 HIV‐2 [ROD] EC50
Lab note - cut at 5000 nM for EC50: Y if strictly below, N if not.

Worked examples, 3 compounds total:
compound	assigned_label
CCCCCCCCCCCCCCCCCCOP(=O)(OCc1ccc(OC(=O)CCCC)cc1)OP(=O)(O)OP(=O)(O)OC[C@@H]1O[C@H](n2cc(F)c(N)nc2=O)CS1 (stereo partly drawn) [10cy, γ‐(AB‐C4;alkyl‐C18)‐FTCTP]	Y
CCCCCCCCCCCCCCCCCCP(=O)(OCc1ccc(OC(=O)CCCC)cc1)OP(=O)(O)OP(=O)(O)OC[C@@H]1O[C@H](n2cc(F)c(N)nc2=O)CS1 (stereo partly drawn) [10cz]	Y
O=c1[nH]c(=O)n([C@H]2C[C@H](O)[C@@H](CO)O2)cc1/C=C/Br [1g (BVDU), BVDU, reference compound]	N

Query: EC50 under 5000 nM? Item: CCCCCCCCCCCCCCCCCCOP(=O)(OCCCC)OP(=O)(O)OP(=O)(O)OC[C@H]1O[C@@H](n2cc(Cl)c(=O)[nH]c2=O)C[C@@H]1F (stereo partly drawn) [10dv]
Result: Y

Query: Do the same for CCCCCCCCCCCCCCCCCCOP(=O)(OCCCC)OP(=O)(O)OP(=O)(O)OC[C@H]1O[C@@H](n2cc(/C=C/Br)c(=O)[nH]c2=O)C[C@@H]1O (stereo partly drawn) [10gv] please
Result: N

Query: Do the same for CCCCCCCCCCCCCCCCCCOP(=O)(OCC(CC)CCCC)OP(=O)(O)OP(=O)(O)OC[C@H]1O[C@@H](n2cc(C)c(=O)[nH]c2=O)C[C@@H]1N=[N+]=[N-] (stereo partly drawn) [10bw] please
Result: Y

====

test system: pig liver esterase (PLE); test: Hydrolysis with pig liver esterase (PLE); type: in vitro ADME; details: pig liver esterase (PLE) in PBS, PLE in PBS pH 7.3, 37 °C, read-out: PLE t 1/2 (converted)
Give measured half-life at 0.45 mM for each item. Keep answers brief.

compound	endpoint_value
CCCCCCCCCCCCCCCCCCP(=O)(OCc1ccc(OC(=O)CCCC)cc1)OP(=O)(O)OP(=O)(O)OC[C@H]1O[C@@H](n2cc(Cl)c(=O)[nH]c2=O)C[C@@H]1F (some centres unmarked) [10dz]	1.3 h
CCCCCCCCCCCCCCCCCCOP(=O)(O)OP(=O)(O)OP(=O)(O)OC[C@H]1O[C@@H](n2cc(C)c(=O)[nH]c2=O)C[C@@H]1F [20f, γ‐C18‐FLTTP]	> 150 h

Look at each compound and report its half-life at 0.45 mM.
1. CCCCCCCCCCCCCCCCCCP(=O)(OCc1ccc(OC(=O)CCCC)cc1)OP(=O)(O)OP(=O)(O)OC[C@@H]1C=C[C@H](n2cnc3c(NC4CC4)nc(N)nc32)C1 (some centres unmarked) [10hz, γ‐(AB‐C4)‐γ‐C‐(alkyl‐C18)‐ABCTP]
2. CCCCCCCCCCCCCCCCCCOP(=O)(OCCCC)OP(=O)(O)OP(=O)(O)OC[C@@H]1C=C[C@H](n2cnc3c(NC4CC4)nc(N)nc32)C1 (some centres unmarked) [10hv, γ‐(C4;C18)‐ABCTP]
3. CCCCCCCCCCCCCCCCCCOP(=O)(OCCCC)OP(=O)(O)OP(=O)(O)OC[C@H]1O[C@@H](n2cc(Cl)c(=O)[nH]c2=O)C[C@@H]1F (some centres unmarked) [10dv]

Result:
1.11 h
> 150 h
> 150 h
